molecular target: MurD (UniProt P14900); assay: relative enzymatic activity vs untreated control (fraction); higher = less inhibition; conditions: 100 µM; incubation time: 2 h at 37 C
Sequence (P14900 whole entry): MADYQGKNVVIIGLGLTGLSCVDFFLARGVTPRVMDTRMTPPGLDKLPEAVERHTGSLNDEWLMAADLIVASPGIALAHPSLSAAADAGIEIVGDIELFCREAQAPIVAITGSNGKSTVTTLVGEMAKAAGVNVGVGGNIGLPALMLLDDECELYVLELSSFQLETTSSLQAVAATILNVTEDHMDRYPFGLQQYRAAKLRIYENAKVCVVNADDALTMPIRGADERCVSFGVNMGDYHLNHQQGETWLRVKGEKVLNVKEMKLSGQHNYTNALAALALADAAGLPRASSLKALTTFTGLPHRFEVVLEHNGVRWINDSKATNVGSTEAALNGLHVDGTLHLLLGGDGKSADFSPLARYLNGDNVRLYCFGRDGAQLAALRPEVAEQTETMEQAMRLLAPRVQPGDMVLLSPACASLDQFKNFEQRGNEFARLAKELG
Consider the following compounds; for each one, report its relative enzymatic activity.
Lab note: write the figure by itself, no unit.

Reported relative enzymatic activity, compound NC[C@H]1OB(O)c2c(OCCCO)cccc21 : ____
0.564

Reported relative enzymatic activity, compound CCCCCCCCCCCCC[N+](C)(C)Cc1ccccc1 : ____
0.0614

Reported relative enzymatic activity, compound CC(=O)OCC1=C(C(=O)[O-])N2C(=O)C(NC(=O)Cc3cccs3)C2SC1.[Na+] (centres undefined) : ____
0.597

Reported relative enzymatic activity, compound O=C1CN(/N=C/c2ccc([N+](=O)[O-])o2)C(=O)N1 : ____
0.481

Reported relative enzymatic activity, compound C=CC1=C(C(=O)O)N2C(=O)[C@@H](NC(=O)/C(=N\OCC(=O)O)c3csc(N)n3)[C@H]2SC1 : ____
0.606

Reported relative enzymatic activity, compound CON=C(C(=O)NC1C(=O)N2C(C(=O)[O-])=C(COC(N)=O)CSC12)c1ccco1.[Na+] (centres undefined) : ____
0.72

Reported relative enzymatic activity, compound CCC1OC(=O)C(C)C(=O)C(C)C(OC2OC(C)CC(N(C)C)C2O)C(C)(OC)CC(C)C(=O)C(C)C2N(CCCCn3cnc(-c4cccnc4)c3)C(=O)OC12C (centres undefined) : ____
0.525

Reported relative enzymatic activity, compound CN1CCN(c2c(F)cc3c(=O)c(C(=O)O)cn4c3c2SCC4)CC1 : ____
0.608

Reported relative enzymatic activity, compound N[C@@H]1[C@H]2CN(c3nc4c(cc3F)c(=O)c(C(=O)O)cn4-c3ccc(F)cc3F)C[C@@H]12 : ____
0.555

Reported relative enzymatic activity, compound COC12C(COC(N)=O)C3=C(C(=O)C(C)=C(N)C3=O)N1CC1NC12 (centres undefined) : ____
0.589

Reported relative enzymatic activity, compound CC[C@H]1OC(=O)[C@H](C)[C@@H](O[C@H]2C[C@@](C)(OC)[C@@H](O)[C@H](C)O2)[C@H](C)[C@@H](O[C@@H]2O[C@H](C)C[C@H](N(C)C)[C@H]2O)[C@](C)(O)C[C@@H](C)CN(C)[C@H](C)[C@@H](O)[C@]1(C)O : ____
0.58

Reported relative enzymatic activity, compound C=CC1=C(C(=O)O)N2C(=O)[C@@H](NC(=O)/C(=N\O)c3csc(N)n3)[C@H]2SC1 : ____
0.619

Reported relative enzymatic activity, compound CS(=O)(=O)c1ccc(C(O)C(CF)NC(=O)C(Cl)Cl)cc1 (centres undefined) : ____
0.575

Reported relative enzymatic activity, compound CN[C@@H]1[C@H](O)[C@H](NC)[C@H]2O[C@@]3(O)C(=O)C[C@@H](C)O[C@H]3O[C@@H]2[C@H]1O : ____
0.624

Reported relative enzymatic activity, compound O=c1[nH]c(=O)n([C@@H]2C[C@@H](O)[C@@H](CO)O2)cc1F : ____
0.604

Reported relative enzymatic activity, compound CC(=O)On1cc(F)c(=O)[nH]c1=O : ____
0.464

Reported relative enzymatic activity, compound CN(C)c1ccc(O)c2c1CC1CC3C(N(C)C)C(O)=C(C(N)=O)C(=O)C3(O)C(O)=C1C2=O.Cl (centres undefined) : ____
0.602

Reported relative enzymatic activity, compound CCn1cc(C(=O)O)c(=O)c2cc(F)c(N3CCNCC3)cc21 : ____
0.573

Reported relative enzymatic activity, compound CN(C)c1ccc(O)c2c1C[C@H]1C[C@H]3[C@H](N(C)C)C(=O)C(C(N)=O)=C(O)[C@@]3(O)C(=O)[C@H]1C2=O : ____
0.623
